protocolConditions: in comparison to a 15 mg dose of hydrocodone
Equianalgesic Doses of Opioids, Calculated Dose strictly under 20 mg means Condition met; at 20 mg or over means Condition not met.

COc1ccc2c3c1OC1C(=O)CC[C@H]4[C@@H](C2)N(C)CC[C@]314 (some centres unmarked) [Hydrocodone] ... Condition met
COc1ccc2c3c1O[C@H]1C(=O)CC[C@@]4(O)[C@@H](C2)N(C)CC[C@]314 ... Condition met
CN1CC[C@]23CCCC[C@H]2[C@H]1Cc1ccc(O)cc13 ... Condition met
CCC(=O)C(CC(C)N(C)C)(c1ccccc1)c1ccccc1 (centres unmarked) ... Condition met

// switching to the query compound
Query block: Lab note: Equianalgesic Doses of Opioids, Calculated Dose threshold 20 mg. Does this compound come in strictly under it? "COc1ccc2c3c1O[C@H]1[C@@H](O)C=C[C@H]4[C@@H](C2)N(C)CC[C@@]341"
Result block: Condition not met
